Please go through the items and note down their viability at 72 h, 0.0976562 uM.
Test: Cytotoxicity assay (CellTiter-Glo, 72 h), MESO-1
Type: cell-based
Conditions: human, MESO-1 malignant pleural mesothelioma cells, conc 0.0976562 uM; raw replicate data; read-out: MESO1 viability (%)
Description: Jurkat cells were cultured in RPMI1640 medium supplemented with 10% foetal bovine serum, penicillin (50 U/ml), streptomycin (50 μg/ml), and Glutamax. SKOV-3 cells were cultured in DMEM medium supplemented with 10% fetal bovine serum, penicillin (50 U/ml), and streptomycin (50 μg/ml). […] Cell viabilities were measured using a CellTiter-Glo luminescent cell viability assay and EnVision multilabel plate reader.
Give bare numbers, in %.

molecule	readout units	viability at 72 h, 0.0976562 uM
COC1CC2CCC(C)C(O)(O2)C(=O)C(=O)N2CCCCC2C(=O)OC(C(C)CC2CCC(O)C(OC)C2)CCC(C)C=C(C)C(O)C(OC)C(=O)C(C)CC(C)C=CC=CC=C1C (centres unmarked) [Compound 16, 32-desketorapamycin]	%	78.4
CO[C@@H]1C[C@H](C[C@@H](C)[C@@H]2CC(=O)[C@H](C)/C=C(\C)[C@@H](O)[C@@H](OC)C(=O)[C@H](C)C[C@H](C)/C=C/C=C/C=C(\C)[C@H](O)C[C@@H]3CC[C@@H](C)[C@@](O)(O3)C(=O)C(=O)N3CCCC[C@H]3C(=O)O2)CC[C@H]1O [Compound 17, (16R)-16-O-demethyl rapamycin]	%	78.9
COC1CC2CCC(C)C(O)(O2)C(=O)C(=O)N2CCCCC2C(=O)OC(C(C)CC2CCC(O)C(OC)C2)CC(O)CC(=O)C(C)C=C(C)C(O)CC(=O)C(C)CC(C)C=CC=CC=C1C (centres unmarked) [Compound 13]	%	82
CO[C@H]1C[C@@H]2CC[C@@H](C)[C@@](O)(O2)C(=O)C(=O)N2CCCC[C@H]2C(=O)O[C@H]([C@H](C)C[C@@H]2CC[C@@H](O)[C@H](OC)C2)CC(=O)[C@H](C)/C=C(\C)[C@@H](O)CC[C@H](C)/C=C/C=C/C=C/1C [Compound 7]	%	78.6

Continue with the molecule presented below.
For this molecule ( COC1CC2CCC(C)C(O)(O2)C(=O)C(=O)N2CCCCC2C(=O)OC(C(C)CC2CCC(O)C(OC)C2)CC(=O)C(C)C=C(C)C(O)C(OC)C(=O)C(C)CC(C)C=CCCC=C1C (centres unmarked) [Compound 15, 19,20-dihidro-rapamycin] ), measured viability at 72 h, 0.0976562 uM is 81.6

* * *

assay: Cytotoxicity assay (CellTiter-Glo, 72 h), SKOV-3; format: cell-based, human; details: human, SKOV-3 cells (ovarian adenocarcinoma), conc 0.00305176 uM; raw replicate data; read-out: SKOV3 viability (%)
observable: viability at 72 h, 0.00305176 uM (%)
One number for each entry, in %.

compound	test value
CO[C@@H]1/C=C/C=C/[C@@H](C)C[C@@H](C)C(=O)C[C@H](O)/C(C)=C/[C@@H](C)C(=O)C[C@@H]([C@H](C)C[C@@H]2CC[C@@H](O)[C@H](OC)C2)OC(=O)[C@@H]2CCCCN2C(=O)C(=O)[C@]2(O)O[C@@H](CC[C@H]2C)C1	97.4
CO[C@@H]1C[C@H](C[C@@H](C)[C@@H]2CC(=O)[C@H](C)/C=C(\C)[C@@H](O)[C@@H](OC)C(=O)[C@H](C)C[C@H](C)/C=C/C=C/C=C(\C)[C@H](O)C[C@@H]3CC[C@@H](C)[C@@](O)(O3)C(=O)C(=O)N3CCCC[C@H]3C(=O)O2)CC[C@H]1O [Compound 17, (16R)-16-O-demethyl rapamycin]	107
COC1CC2CCC(C)C(O)(O2)C(=O)C(=O)N2CCCCC2C(=O)OC(C(C)CC2CCC(O)C(OC)C2)CC(=O)C(C)C=C(C)C(O)CC(=O)C(C)C=C(C)C=CC=CC=C1C (stereo not shown)	98

Continue with the compound presented below.
For this compound ( CO[C@H]1C[C@@H]2CC[C@@H](C)[C@@](O)(O2)C(=O)C(=O)N2CCCC[C@H]2C(=O)O[C@H]([C@H](C)C[C@@H]2CC[C@@H](O)[C@H](OC)C2)CC(=O)[C@H](C)/C=C(\C)[C@@H](O)CC[C@H](C)/C=C/C=C/C=C/1C ), measured viability at 72 h, 0.00305176 uM is 94.8

* * *

assay: Cytotoxicity assay (CellTiter-Glo, 72 h), Jurkat; assay type: cell-based; conditions: human, Jurkat cells (T lymphoma), conc 25 uM, raw data (replicates)
Please go through the items and note down their viability at 72 h, 25 uM.
Answers are plain numbers, in %.

Some solved cases for reference:
compound	readout units	viability at 72 h, 25 uM
CO[C@H]1C[C@@H]2CC[C@@H](C)[C@@](O)(O2)C(=O)C(=O)N2CCCC[C@H]2C(=O)O[C@H]([C@H](C)C[C@@H]2CC[C@@H](O)[C@H](OC)C2)CC(=O)[C@H](C)/C=C(\C)[C@@H](O)[C@@H](OC)C(=O)[C@H](C)C[C@H](C)/C=C/C=C/C=C/1C [Compound 1, rapamycin, reference compound]	%	7.7
COC1CC2CCC(C)C(O)(O2)C(=O)C(=O)N2CCCCC2C(=O)OC(C(C)CC2CCC(O)C(OC)C2)CC(=O)C(C)C=C(C)C(O)C(OC)C(=O)C(C)CC(C)C=CCCC=C1C (stereo not shown)	%	1
COC1CC2CCC(C)C(O)(O2)C(=O)C(=O)N2CCCCC2C(=O)OC(C(C)CC2CCC(O)C(OC)C2)CCC(C)C=C(C)C(O)C(OC)C(=O)C(C)CC(C)C=CC=CC=C1C (stereo not shown)	%	2

Continue with the compound presented below.
For this compound ( CO[C@H]1C[C@@H]2CC[C@@H](C)[C@@](O)(O2)C(=O)C(=O)N2CCCC[C@H]2C(=O)O[C@H]([C@H](C)C[C@@H]2CC[C@@H](O)[C@H](OC)C2)CC(=O)[C@H](C)/C=C(\C)[C@@H](O)CC(=O)[C@H](C)C[C@H](C)/C=C/C=C(C)/C=C/1C ), measured viability at 72 h, 25 uM is 26.4

* * *

test: Cytotoxicity assay (CellTiter-Glo, 72 h), MESO-1; type: cell-based; conditions: human, MESO-1 malignant pleural mesothelioma cells, conc 6.25 uM; raw replicate data; read-out: MESO1 viability (%)
Please go through the items and note down their viability at 72 h, 6.25 uM.
Answers are plain numbers, in %.

Value sought for every listed compound: viability at 72 h, 6.25 uM.
1. CO[C@@H]1/C=C/C=C/[C@@H](C)C[C@@H](C)C(=O)C[C@H](O)/C(C)=C/[C@@H](C)C(=O)C[C@@H]([C@H](C)C[C@@H]2CC[C@@H](O)[C@H](OC)C2)OC(=O)[C@@H]2CCCCN2C(=O)C(=O)[C@]2(O)O[C@@H](CC[C@H]2C)C1 [Compound 9]
2. COC1CC2CCC(C)C(O)(O2)C(=O)C(=O)N2CCCCC2C(=O)OC(C(C)CC2CCC(O)C(OC)C2)CC(O)CC(=O)C(C)C=C(C)C(O)CC(=O)C(C)CC(C)C=CC=CC=C1C (stereo not drawn) [Compound 13]

[69.4, 68.1]

For this compound ( COC1CC2CCC(C)C(O)(O2)C(=O)C(=O)N2CCCCC2C(=O)OC(C(C)CC2CCC(O)C(OC)C2)CC(=O)C(C)C=C(C)C(O)C(OC)C(=O)C(C)CC(C)C=CCCC=C1C (stereo not drawn) [Compound 15, 19,20-dihidro-rapamycin] ), measured viability at 72 h, 6.25 uM is 68.9

* * *

assay: Cytotoxicity assay (CellTiter-Glo, 72 h), SKOV-3; assay type: cell-based, human; conditions: human, SKOV-3 cells (ovarian adenocarcinoma), conc 25 uM; raw replicate data; read-out: SKOV3 viability (%)
observable: viability at 72 h, 25 uM (%)
Answers are plain numbers, in %.

molecule	observable	test value
CO[C@@H]1/C=C/C=C/[C@@H](C)C[C@@H](C)C(=O)C[C@H](O)/C(C)=C/[C@@H](C)C(=O)C[C@@H]([C@H](C)C[C@@H]2CC[C@@H](O)[C@H](OC)C2)OC(=O)[C@@H]2CCCCN2C(=O)C(=O)[C@]2(O)O[C@@H](CC[C@H]2C)C1 [Compound 9]	viability at 72 h, 25 uM	70.4
COC1CC2CCC(C)C(O)(O2)C(=O)C(=O)N2CCCCC2C(=O)OC(C(C)CC2CCC(O)C(OC)C2)CC(=O)C(C)C=C(C)C(O)C(OC)C(=O)C(C)CC(C)C=CCCC=C1C (stereo not drawn) [Compound 15, 19,20-dihidro-rapamycin]	viability at 72 h, 25 uM	51.1
COC1CC2CCC(C)C(O)(O2)C(=O)C(=O)N2CCCCC2C(=O)OC(C(C)CC2CCC(O)C(OC)C2)CCC(C)C=C(C)C(O)C(OC)C(=O)C(C)CC(C)C=CC=CC=C1C (stereo not drawn) [Compound 16, 32-desketorapamycin]	viability at 72 h, 25 uM	45.3
COC1CC2CCC(C)C(O)(O2)C(=O)C(=O)N2CCCCC2C(=O)OC(C(C)CC2CCC(O)C(OC)C2)CC(O)CC(=O)C(C)C=C(C)C(O)CC(=O)C(C)CC(C)C=CC=CC=C1C (stereo not drawn) [Compound 13]	viability at 72 h, 25 uM	76.6
COC1CC2CCC(C)C(O)(O2)C(=O)C(=O)N2CCCCC2C(=O)OC(C(C)CC2CCC(O)C(OC)C2)CC(=O)C(C)C=C(C)C(O)CC(=O)C(C)C=C(C)C=CC=CC=C1C (stereo not drawn) [Compound 14]	viability at 72 h, 25 uM	73.7

For this molecule ( CO[C@H]1C[C@@H]2CC[C@@H](C)[C@@](O)(O2)C(=O)C(=O)N2CCCC[C@H]2C(=O)O[C@H]([C@H](C)C[C@@H]2CC[C@@H](O)[C@H](OC)C2)CC(=O)[C@H](C)/C=C(\C)[C@@H](O)CC(=O)[C@H](C)C[C@H](C)/C=C/C=C(C)/C=C/1C [Compound 2, 27-demethoxy-19-methyl rapamycin] ), measured viability at 72 h, 25 uM is 100
